Sourced from patent US20250346599A1

molecular target: human MDR1 (P-glycoprotein; P-gp) (Homo sapiens (Human)); experiment: bi-directional MDCK-MDR1 permeability assay; assay type: in vitro ADME; details: dog, MDCK-MDR1; apical to basolateral direction
Sequence (P08183 whole entry): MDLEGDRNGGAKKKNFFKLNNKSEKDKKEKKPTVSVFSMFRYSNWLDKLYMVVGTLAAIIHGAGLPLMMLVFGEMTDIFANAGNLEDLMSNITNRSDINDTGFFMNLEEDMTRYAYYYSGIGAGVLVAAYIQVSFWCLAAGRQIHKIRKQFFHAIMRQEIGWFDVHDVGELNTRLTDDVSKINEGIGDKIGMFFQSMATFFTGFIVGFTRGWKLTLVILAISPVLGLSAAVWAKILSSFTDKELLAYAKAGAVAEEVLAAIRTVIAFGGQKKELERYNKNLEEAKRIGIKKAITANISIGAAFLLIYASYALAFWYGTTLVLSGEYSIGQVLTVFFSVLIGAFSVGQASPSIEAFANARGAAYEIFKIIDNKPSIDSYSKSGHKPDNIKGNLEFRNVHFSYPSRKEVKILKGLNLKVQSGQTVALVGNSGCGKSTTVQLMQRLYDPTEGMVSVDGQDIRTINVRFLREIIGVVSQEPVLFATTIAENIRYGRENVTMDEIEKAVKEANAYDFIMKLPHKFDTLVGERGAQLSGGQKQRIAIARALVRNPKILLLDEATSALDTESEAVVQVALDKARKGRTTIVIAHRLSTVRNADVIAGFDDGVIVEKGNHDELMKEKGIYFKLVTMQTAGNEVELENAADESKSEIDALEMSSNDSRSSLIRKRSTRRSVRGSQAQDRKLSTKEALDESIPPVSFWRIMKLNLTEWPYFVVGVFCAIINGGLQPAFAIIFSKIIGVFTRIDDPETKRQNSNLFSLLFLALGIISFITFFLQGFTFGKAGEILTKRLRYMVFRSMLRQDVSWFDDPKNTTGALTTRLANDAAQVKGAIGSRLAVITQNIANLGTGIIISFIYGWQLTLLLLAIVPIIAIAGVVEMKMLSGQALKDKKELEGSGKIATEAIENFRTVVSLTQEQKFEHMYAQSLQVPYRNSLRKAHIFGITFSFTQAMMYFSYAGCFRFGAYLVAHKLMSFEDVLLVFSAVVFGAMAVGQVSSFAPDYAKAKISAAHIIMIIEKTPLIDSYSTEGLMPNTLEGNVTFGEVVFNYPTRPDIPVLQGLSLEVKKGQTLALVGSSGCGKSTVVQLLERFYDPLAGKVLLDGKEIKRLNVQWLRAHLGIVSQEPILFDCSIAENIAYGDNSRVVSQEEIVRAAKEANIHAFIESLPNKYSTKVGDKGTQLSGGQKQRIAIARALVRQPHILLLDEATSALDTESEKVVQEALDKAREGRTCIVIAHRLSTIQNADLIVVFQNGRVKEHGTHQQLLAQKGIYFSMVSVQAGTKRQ
ENDPOINT_NAME: Papp A→B (×10⁻⁶ cm/s)

I: CN1CCC([C@@H]2Nc3cc(F)cc4c(=O)[nH]nc(c34)[C@H]2c2ccccc2Cl)CC1 [Compound 0116B]
II: O=c1[nH]nc2c3c(cc(F)cc13)NCC2c1ccc(F)cc1F (stereo not shown)
q: Just tell me: smaller Papp A→B value, I or II ? Reply with the label of the item you choose.
a: I
(I: 0.471 ×10⁻⁶ cm/s, II: 16.1 ×10⁻⁶ cm/s)
